I'd be grateful if you could share measured MIC for these entries.
- Tested on: SAUR 9218
- ASSAY_TEXT: MIC Test Method, standard agar dilution
- Assay type: cell-based
- REPORTED_CONDITIONS: agar dilution, Mueller Hinton agar, incubated overnight at 35° C.; lowest concentration that inhibits visible growth; read-out: SAUR 9218 MIC

# example entries with known answers
INSERT INTO assay_data (compound, result) VALUES
  ('N#Cc1ccc(NC(=O)c2cc3cccc(NC(=O)C4CCCN4)c3[nH]2)c(C(=O)O)c1 (stereo not drawn)', '> 128 µg/mL'),
  ('Cc1cc(C(=O)Nc2ccc(C#N)cc2C(=O)O)c(C)o1', '> 128 µg/mL');

Now look at this entry.
Item under review: N#Cc1ccc(NC(=O)c2ccoc2)c(C(=O)O)c1 . Reported MIC?
> 128 µg/mL

====

- Tested on: SAUR 9218
- ASSAY_TEXT: MIC Test Method, standard agar dilution
- Assay type: cell-based
- REPORTED_CONDITIONS: agar dilution, Mueller Hinton agar, incubated overnight at 35° C.; lowest concentration that inhibits visible growth; read-out: SAUR 9218 MIC
METRIC_NAME: MIC (µg/mL)
One number for each entry, in µg/mL.

Examples from the recorded data:
INSERT INTO assay_data (mol, test_target, numeric_value) VALUES
  ('N#Cc1ccc(NC(=O)c2ncc(-c3ccco3)o2)c(C(=O)O)c1', 'SAUR 9218', 2),
  ('N#Cc1ccc(NC(=O)c2cc3cccc(NC(=O)Cc4csc5ccccc45)c3[nH]2)c(C(=O)O)c1', 'SAUR 9218', 0.25),
  ('Cn1c(C(=O)Nc2ccc(C#N)cc2C(=O)O)cc2cccc(NC(=O)NCc3ccccc3)c21', 'SAUR 9218', 0.125),
  ('Cn1c(C(=O)Nc2ccc(C#N)cc2C(=O)O)cc2cccc(S(=O)(=O)c3ccccc3)c21', 'SAUR 9218', 0.125),
  ('Cc1ccc(-c2cccc3cc(C(=O)Nc4ccc(C#N)cc4C(=O)O)n(C)c23)s1', 'SAUR 9218', 0.5),
  ('N#Cc1ccc(NC(=O)c2cc3ccccc3n2CC2CCCCC2)c(C(=O)O)c1', 'SAUR 9218', 1),
  ('Cc1sc(C(=O)Nc2ccc(C#N)cc2C(=O)O)cc1S(=O)(=O)N1CCN(c2cccc(C(F)(F)F)c2)CC1', 'SAUR 9218', 32),
  ('COCC(=O)Nc1ccc2onc(C(=O)Nc3ccc(C#N)cc3C(=O)O)c2c1', 'SAUR 9218', 4),
  ('Cc1sc(C(=O)Nc2ccc(C#N)cc2C(=O)O)cc1S(=O)(=O)Nc1ccc2c(c1)CCC2', 'SAUR 9218', 32),
  ('N#Cc1ccc(NC(=O)c2cc3cccc(NC(=O)Cc4cccc(C(F)(F)F)c4)c3[nH]2)c(C(=O)O)c1', 'SAUR 9218', 0.25);

Working through the 2 compounds below one at a time, give MIC for each.
1. Cc1sc(C(=O)Nc2ccc(Br)cc2C(=O)O)cc1S(=O)(=O)NCCc1ccc(N)cc1
2. N#Cc1ccc(NC(=O)COc2ccccc2-c2cc(C(=O)Nc3ccc(C#N)cc3C(=O)O)no2)c(C(=O)O)c1

[32, 128]

Form field - read-out: MIC; system: SAUR 9218; submitted item: CCCCCCSc1ccc(C(=O)Nc2ccc(C#N)cc2C(=O)O)cn1
0.125

====

- Tested on: SAUR 9218
- ASSAY_TEXT: MIC Test Method, standard agar dilution
- Format: cell-based
- REPORTED_CONDITIONS: agar dilution, Mueller Hinton agar, incubated overnight at 35° C.; lowest concentration that inhibits visible growth; read-out: SAUR 9218 MIC
- Procedure: The in vitro MiCs of test compounds were determined by a standard agar dilution method. A stock drug solution of each analog was prepared in the preferred solvent, usually DMSO:H2O (1:3). Serial 2-fold dilutions of each sample are made using 1.0 ml aliquots of sterile distil]ed water. […] Following incubation the Minimum Inhibitory Concentration (MIC μg/ml), the lowest concentration of drug that inhibits visible growth of the organism, was read and recorded.
# note: boundary value 8 µg/mL maps to Not fulfilled; MIC below it maps to Fulfilled

These recorded examples may help you get a feel for the data.
INSERT INTO results (compound, label) VALUES
  ('Cc1c(C(=O)Nc2ccc(C#N)cc2C(=O)O)noc1-c1ccccc1', 'Fulfilled'),
  ('COCCOCCCSc1cnc(C(=O)Nc2ccc(C#N)cc2C(=O)O)cn1', 'Fulfilled'),
  ('Cn1c(C(=O)Nc2ccc(C#N)cc2C(=O)O)cc2cccc(NC(=O)c3ccc(N=[N+]=[N-])c(I)c3)c21', 'Not fulfilled');

For this compound, is MIC lower than 8 µg/mL? Cc1sc(C(=O)Nc2ccc(C#N)cc2C(=O)O)cc1S(=O)(=O)N1CC(C)OC(C)C1 (centres unmarked)
Not fulfilled

# check: MIC < 8 µg/mL for CC(C)(C)N1C(=O)c2ccc(C(=O)Nc3ccc(Br)cc3C(=O)O)cc2C1=O
Fulfilled

====

- Test system: SAUR 9218
- ASSAY_TEXT: MIC Test Method, standard agar dilution
- Type: cell-based
- REPORTED_CONDITIONS: agar dilution, Mueller Hinton agar, incubated overnight at 35° C.; lowest concentration that inhibits visible growth; read-out: SAUR 9218 MIC
# strict inequality: MIC < 4 µg/mL yields rule met, everything else yields rule not met

# example entries with known answers
INSERT INTO measurements (compound, label) VALUES
  ('N#Cc1ccc(NC(=O)c2cc3cccc(NS(=O)(=O)c4ccc(OC(F)(F)F)cc4)c3[nH]2)c(C(=O)O)c1', 'rule met'),
  ('Cn1c(C(=O)Nc2ccc(C#N)cc2C(=O)O)cc2cccc(OCC(O)CCl)c21 (centres unmarked)', 'rule met'),
  ('N#Cc1ccc(NC(=O)c2cc(-c3ccccc3Oc3ccc(-c4ccccc4)cc3)on2)c(C(=O)O)c1', 'rule not met'),
  ('COC(Cc1cnc(C(=O)Nc2ccc(Br)cc2C(=O)O)cn1)[C@H]1COC2(CCCCC2)O1 (some centres unmarked)', 'rule not met'),
  ('Cn1c(C(=O)Nc2ccc(C#N)cc2C(=O)O)cc2cccc(Br)c21', 'rule met'),
  ('N#Cc1ccc(NC(=O)c2cc3cccc(NC(=O)C45CC6CC(CC(C6)C4)C5)c3[nH]2)c(C(=O)O)c1', 'rule not met');

Bench note: check whether CCCCCCCCCSc1cnc(C(=O)Nc2ccc(C#N)cc2C(=O)O)cn1 shows MIC below 4 µg/mL
rule met

Is the reported MIC for N#Cc1ccc(NC(=O)c2ccco2)c(C(=O)O)c1 strictly below 4 µg/mL?
rule not met

Does the reported MIC of N#Cc1ccc(NC(=O)c2ccc(SCCCCCO)nn2)c(C(=O)O)c1 stay below 4 µg/mL?
rule met

In plain terms, does O=C(Nc1ccc(Br)cc1C(=O)O)c1csc(S(=O)(=O)N2CCN(c3cccc(C(F)(F)F)c3)CC2)c1 come in under 4 µg/mL for MIC?
rule not met

Quick check: MIC of COc1ccc(OC)c(-c2ccc3onc(C(=O)Nc4ccc(C#N)cc4C(=O)O)c3c2)c1 under 4 µg/mL?
rule met

MIC under 4 µg/mL? Item: CCN(CC)S(=O)(=O)c1ccc2onc(C(=O)Nc3ccc(C#N)cc3C(=O)O)c2c1
rule met

Does this compound meet the criterion MIC < 4 µg/mL? COC(=O)CSc1ccc(C(=O)Nc2ccc(C#N)cc2C(=O)O)cn1
rule met

Please indicate whether the reported MIC of CCCCSc1cnc(C(=O)Nc2ccc(Cl)cc2C(=O)O)cn1 is strictly below 4 µg/mL.
rule met

Item N#Cc1ccc(NC(=O)c2nc3ccccc3o2)c(C(=O)O)c1 : MIC beneath 4 µg/mL, strictly?
rule met

Report whether reported MIC is lower than 4 µg/mL (strictly) for N#Cc1ccc(NC(=O)c2cncc(-c3ccc(Cl)cc3)c2)c(C(=O)O)c1
rule not met

====

- Tested on: SAUR 9218
- ASSAY_TEXT: MIC Test Method, standard agar dilution
- Assay type: cell-based
- REPORTED_CONDITIONS: agar dilution, Mueller Hinton agar, incubated overnight at 35° C.; lowest concentration that inhibits visible growth; read-out: SAUR 9218 MIC
Please go through the items and note down their MIC.
Give bare numbers, in µg/mL.

Some solved cases for reference:
INSERT INTO assay_data (molecule, test_target, metric_name, numeric_value) VALUES
  ('N#Cc1ccc(NC(=O)c2cc3cccc(NC(=O)Cc4ccccc4C(F)(F)F)c3[nH]2)c(C(=O)O)c1', 'SAUR 9218', 'MIC', 1),
  ('O=C(Nc1ccc(Br)cc1-c1noc(=O)[nH]1)c1cc(-c2ccccc2)on1', 'SAUR 9218', 'MIC', 1),
  ('Cc1nn(-c2ccccc2)nc1C(=O)Nc1ccc(C#N)cc1C(=O)O', 'SAUR 9218', 'MIC', 4),
  ('CCCCCCSc1ccc(C(=O)Nc2ccc(C#N)cc2C(=O)O)nn1', 'SAUR 9218', 'MIC', 0.03),
  ('N#Cc1ccc(NC(=O)c2cc(-c3ccccc3OCCCCCCl)on2)c(C(=O)O)c1', 'SAUR 9218', 'MIC', 0.125),
  ('N#Cc1ccc(NC(=O)c2cc3cccc4c3n2CCC4Oc2ccccc2)c(C(=O)O)c1 (stereo not shown)', 'SAUR 9218', 'MIC', 0.25);

Below is a list of molecules. For each, state its recorded MIC.
1. N#Cc1ccc(NC(=O)c2noc3c2CCc2ccccc2-3)c(C(=O)O)c1
2. CC(=O)c1ccccc1-c1ccc2onc(C(=O)Nc3ccc(C#N)cc3C(=O)O)c2c1
3. N#Cc1ccc(NC(=O)c2cncc(-c3cnccn3)c2)c(C(=O)O)c1

1: 0.06; 2: 0.5; 3: 16

Each of the following entries comes with a recorded value; kindly state MIC for each.
1. CCC(=O)COc1ccccc1-c1cc(C(=O)Nc2ccc(O)cc2C(=O)O)no1
2. CCCN(CCC)S(=O)(=O)c1ccc2onc(C(=O)Nc3ccc(C#N)cc3C(=O)O)c2c1
3. CCCCOc1ccc2cc(C(=O)Nc3ccc(C#N)cc3C(=O)O)n(C)c2c1

[1, 0.25, 16]

The measured values listed here are drawn from patent US20040110802A1.
